Target: T1, recombinant human HER2 extracellular domain protein (human, UniProt P04626 23-652)
T1 construct: range 23-652; Range is printed for the immunogen/panning protein; also called ErbB2; recombinant HER2 protein
Test: BLI, Protein A capture
quantity: Kd (nM)
Give the quantity in nM, number only.

{"binder": "2126-Hu-H54 (antibody, IgG1, V domains shown, IgG1/Cκ) VH: QVQLVQSGSELKKPGASVKVSCKASGYTFTDYSMHWVRQAPGQGLEWMGWINTETGEPTYADDFKGRFVFSLDTSVSTAYLQISSLKAEDTAVYFCVRVGRGDYAMDYWGQGTTVTVSS VL: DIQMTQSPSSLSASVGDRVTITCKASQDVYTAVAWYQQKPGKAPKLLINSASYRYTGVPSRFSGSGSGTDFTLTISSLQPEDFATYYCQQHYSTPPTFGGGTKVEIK", "result.unit": "nM", "Kd": 7.96}
{"binder": "2126-Hu-H52 (antibody, IgG1, name in Kabat numbering, V domains shown, IgG1/Cκ) VH: QVQLVQSGSELKKPGASVKVSCKASGYTFTDYSMHWVRQAPGQGLEWMGWINTETGEPTYADDFKGRFVFSLDTSVSTAYLQISSLKAEDTAVYFCVRVGRSDYAMDYWGQGTTVTVSS VL: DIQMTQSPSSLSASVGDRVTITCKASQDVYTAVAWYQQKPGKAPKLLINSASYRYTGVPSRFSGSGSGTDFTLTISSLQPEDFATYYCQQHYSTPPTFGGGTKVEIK", "result.unit": "nM", "Kd": 19.3}

Annotate the binder 2126-Hu-H60 (antibody, IgG1, name in Kabat numbering, V domains shown, IgG1/Cκ) VH: QVQLVQSGSELKKPGASVKVSCKASGYTFTDYSMHWVRQAPGQGLEWMGWINTETGEPTYADDFKGRFVFSLDTSVSTAYLQISSLKAEDTAVYFCVRVGRYYYAMDYWGQGTTVTVSS VL: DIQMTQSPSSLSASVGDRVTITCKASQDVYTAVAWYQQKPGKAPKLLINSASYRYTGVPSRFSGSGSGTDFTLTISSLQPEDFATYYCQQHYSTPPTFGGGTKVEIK with its measured Kd.
23.8
